Target: T1, hAMY3R (human, UniProt P30988)
T1 sequence 1: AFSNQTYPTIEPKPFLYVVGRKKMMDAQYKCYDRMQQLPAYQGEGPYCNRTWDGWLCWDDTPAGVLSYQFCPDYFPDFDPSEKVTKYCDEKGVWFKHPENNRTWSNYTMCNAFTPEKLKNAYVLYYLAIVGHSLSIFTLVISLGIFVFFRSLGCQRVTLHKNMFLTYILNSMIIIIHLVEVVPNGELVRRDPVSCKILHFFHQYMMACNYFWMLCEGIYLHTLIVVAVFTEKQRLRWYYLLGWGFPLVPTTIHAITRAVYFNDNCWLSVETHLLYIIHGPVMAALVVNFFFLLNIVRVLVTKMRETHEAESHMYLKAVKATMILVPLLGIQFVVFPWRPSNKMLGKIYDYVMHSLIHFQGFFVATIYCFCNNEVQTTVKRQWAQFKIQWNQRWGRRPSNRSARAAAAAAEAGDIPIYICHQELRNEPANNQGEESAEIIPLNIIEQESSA
T1 sequence 2: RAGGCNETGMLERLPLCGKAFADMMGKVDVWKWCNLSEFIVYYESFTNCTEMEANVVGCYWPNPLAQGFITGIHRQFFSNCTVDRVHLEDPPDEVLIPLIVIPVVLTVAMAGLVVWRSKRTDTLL
Assay: cell-based or functional assay
Numbered stars: 1 amine (or outer) side, 2 acyl side, 3 side chain; on linkers, the order of the positions; unused ones are H or OH. Bridge positions count the residues as written; N and C are the ends. Square brackets hold non-standard residues; d marks the D form. Ends that are not written are not given here. * marks the point of attachment. C20 diacid = O=C(O)CCCCCCCCCCCCCCCCCCC(=O)*; γGlu = O=C(O)[C@H](CCC(=O)[*:2])N[*:1]; Hyp = O=C(O)[C@@H]1C[C@@H](O)CN1; Cit = NC(=O)NCCC[C@H](N)C(=O)O
Sorting guide: entries reporting hAMY3R EC50 (cAMP) beneath 0.04 nM go in the class 1 pile, the rest go in the class 0 pile.

BINDER	DISCRETE_LABEL
GCRTGTCTVQ[Cit]LAHQIYQFTDKDKDNVAPRSNVSPNG[Hyp]-NH2 (disulfide 2-7 (inferred); ends not checked) [SEQ ID NO: 304]	class 0
GCRFGTCTVQ[Cit]LAHFLYQFTDKDKDNVAPRTKVGSNGY-NH2 (disulfide 2-7 (inferred); ends not checked) [SEQ ID NO: 279]	class 1
{C20 diacid-γGlu}-KCNTATCTVQRLAHQIVQFTDKDKDNVAPPTNVGSNG[Hyp]-NH2 (disulfide 2-7 (inferred); not fully specified; ends not checked) [SEQ ID NO: 85]	class 1
{C20 diacid-γGlu}-KCNFATCATQRLANFLVQFTDKDKDNVAPRSKIGPQGY-NH2 (disulfide 2-7 (inferred); ends not checked) [SEQ ID NO: 389]	class 0
GCRFGTCTVQRLAHFLYQFTDKDGAIAPRTKIGSQGY [SEQ ID NO: 123]	class 1
{C20 diacid-γGlu}-KCNTATCTVQRLAHQIYQFTDKNKDNVAPPTNVGSNG[Hyp]-NH2 (disulfide 2-7 (inferred); not fully specified; ends not checked) [SEQ ID NO: 91]	class 1
GCRTGTCTVQRLAHQIYQFTDKFKDNVAPRSKISPQTW [SEQ ID NO: 184]	class 0
KCRMGTCTVQRLAHQIYQFTDKDKDNVAPRSKISPQT[Hyp]-NH2 (disulfide 2-7 (inferred); ends not checked) [SEQ ID NO: 194]	class 0

Pending binder:
Lookup: Is the reported hAMY3R EC50 (cAMP) for KCNTATCTVQWLAHQIYQFDKDKDNVAPPTNVGSNG[Hyp]-NH2 (disulfide 2-7 (inferred); ends not checked) [SEQ ID NO: 329] strictly below 0.04 nM?
Found: class 1

Values were extracted from patent US12139520B2.
